# measured_on: α-L-Rhamnosidase (Penicillium decumbens, UniProt S7ZS15)
# Sequence (S7ZS15 1-894): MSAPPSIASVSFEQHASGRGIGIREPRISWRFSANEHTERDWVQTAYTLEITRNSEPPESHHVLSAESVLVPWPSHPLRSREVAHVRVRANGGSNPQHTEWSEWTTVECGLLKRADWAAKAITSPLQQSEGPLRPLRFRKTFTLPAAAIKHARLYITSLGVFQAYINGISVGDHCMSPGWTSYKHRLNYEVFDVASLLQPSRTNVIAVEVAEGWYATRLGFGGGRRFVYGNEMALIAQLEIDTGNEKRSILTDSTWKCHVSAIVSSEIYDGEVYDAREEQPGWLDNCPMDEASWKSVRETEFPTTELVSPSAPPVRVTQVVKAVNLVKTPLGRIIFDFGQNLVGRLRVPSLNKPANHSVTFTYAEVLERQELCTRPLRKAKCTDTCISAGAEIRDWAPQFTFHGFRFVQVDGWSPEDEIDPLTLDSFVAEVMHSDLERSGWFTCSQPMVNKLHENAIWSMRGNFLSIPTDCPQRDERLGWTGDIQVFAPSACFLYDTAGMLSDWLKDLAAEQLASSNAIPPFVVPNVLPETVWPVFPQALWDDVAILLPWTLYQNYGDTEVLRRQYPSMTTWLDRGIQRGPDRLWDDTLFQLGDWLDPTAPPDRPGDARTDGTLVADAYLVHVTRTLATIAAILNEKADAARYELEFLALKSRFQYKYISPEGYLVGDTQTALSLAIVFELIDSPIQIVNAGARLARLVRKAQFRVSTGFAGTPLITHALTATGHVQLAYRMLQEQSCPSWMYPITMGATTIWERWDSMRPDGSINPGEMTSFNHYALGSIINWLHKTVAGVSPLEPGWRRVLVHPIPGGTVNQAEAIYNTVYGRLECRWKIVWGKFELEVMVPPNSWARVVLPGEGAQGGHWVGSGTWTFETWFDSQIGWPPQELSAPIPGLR
# assay_info: glycosidase inhibition assay, P. decumbens α-L-rhamnosidase
# Type: biochemical
Think of 6% as a floor: if inhibition at 100 µM stands on it or above, it is 1; beneath it, -1.

Input: Identify whether the reported inhibition at 100 µM of the following compound is 6% or greater: OCCC[C@H](O)CCCCCCCCC[C@H]1N[C@H](CO)[C@@H](O)[C@@H]1O [10’-epi-3]
Output: -1

Input: Param item: OCCCC(O)CCCCCCCCCC1NC(CO)C(O)C1O (stereo not drawn) [2,10-di-epi-3]
Output: -1

Input: Param item: OCCC[C@H](O)CCCCCCCCC[C@@H]1N[C@@H](CO)[C@@H](O)[C@H]1O [ent-3-epi-3]
Output: 1

Input: Param item: OCCC[C@@H](O)CCCCCCCCC[C@@H]1N[C@@H](CO)[C@H](O)[C@H]1O [ent-10’-epi-3]
Output: -1

Input: Param item: OCCC[C@@H](O)CCCCCCCCC[C@@H]1N[C@@H](CO)[C@@H](O)[C@H]1O [ent-3,10-di-epi-3]
Output: 1

Input: Param item: OCCC[C@@H](O)CCCCCCCCC[C@H]1N[C@@H](CO)[C@@H](O)[C@@H]1O [2-epi-3]
Output: -1

Input: Param item: OCCC[C@H](O)CCCCCCCCC[C@@H]1N[C@@H](CO)[C@H](O)[C@H]1O
Output: 1
